target_desc: EGFR L858R/C797S (Homo sapiens, UniProt P00533, C797S/L858R)
Sequence (P00533 25-1210 C797S/L858R): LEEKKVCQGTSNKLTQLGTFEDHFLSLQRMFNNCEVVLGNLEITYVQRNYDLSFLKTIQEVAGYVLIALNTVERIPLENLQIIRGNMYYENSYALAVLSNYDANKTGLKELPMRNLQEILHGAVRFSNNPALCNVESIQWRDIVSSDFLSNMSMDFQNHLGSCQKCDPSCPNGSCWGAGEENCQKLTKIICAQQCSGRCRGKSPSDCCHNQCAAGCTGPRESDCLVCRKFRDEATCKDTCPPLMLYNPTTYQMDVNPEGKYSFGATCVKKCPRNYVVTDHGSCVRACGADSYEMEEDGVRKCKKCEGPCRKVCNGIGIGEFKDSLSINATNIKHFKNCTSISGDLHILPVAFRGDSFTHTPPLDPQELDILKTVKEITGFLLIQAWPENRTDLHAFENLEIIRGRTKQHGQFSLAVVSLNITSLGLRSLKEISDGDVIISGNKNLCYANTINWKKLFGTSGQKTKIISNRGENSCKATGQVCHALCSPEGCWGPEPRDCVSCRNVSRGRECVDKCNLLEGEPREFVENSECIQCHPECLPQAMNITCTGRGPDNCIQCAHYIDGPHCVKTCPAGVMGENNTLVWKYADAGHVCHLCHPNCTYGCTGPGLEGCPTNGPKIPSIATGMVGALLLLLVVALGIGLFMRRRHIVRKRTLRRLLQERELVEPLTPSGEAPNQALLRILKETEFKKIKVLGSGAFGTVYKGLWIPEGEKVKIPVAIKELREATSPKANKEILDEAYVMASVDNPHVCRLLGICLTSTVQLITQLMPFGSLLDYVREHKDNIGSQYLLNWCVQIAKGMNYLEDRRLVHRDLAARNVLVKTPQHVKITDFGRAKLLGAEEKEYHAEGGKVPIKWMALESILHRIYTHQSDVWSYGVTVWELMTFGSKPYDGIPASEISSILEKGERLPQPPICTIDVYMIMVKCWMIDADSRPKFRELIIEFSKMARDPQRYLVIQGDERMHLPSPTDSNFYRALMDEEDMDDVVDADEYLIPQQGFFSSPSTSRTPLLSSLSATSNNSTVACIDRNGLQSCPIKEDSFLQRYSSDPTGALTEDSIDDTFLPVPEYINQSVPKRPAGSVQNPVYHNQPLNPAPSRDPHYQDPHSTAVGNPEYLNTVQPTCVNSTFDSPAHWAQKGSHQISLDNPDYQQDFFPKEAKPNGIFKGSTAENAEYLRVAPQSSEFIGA
test_method_notes: Biochemical EGFR kinase assay (Lance Ultra TR-FRET), double mutant L858R/C797S
experimental_setup: Km ATP; read-out: IC50 L858R/C797S, Km ATP
Experimental: Biochemical EGFR kinase assays were conducted using Lance Ultra time-resolved fluorescence resonance energy transfer (TR-FRET) technology from Perkin-Elmer. […] Each kinase reactions were incubated at room temperature for 1 hour and then stopped by the addition of 4 μL of stop solution (10 mM EDTA). […] After 60 minutes incubation at room temperature the LANCE signal was measured on an EnVision Multilabel Reader (Perkin-Elmer). […]
endpoint_name: pIC50
Scale note: pIC50 = -log10(concentration in M).

Task item: # get_value(readout= pIC50, system= EGFR L858R/C797S (Homo sapiens, UniProt P00533, C797S/L858R)) for C[C@]1(O)CC[C@@H](Nc2cc(Nc3ccnc(-c4cnn(CC(F)F)c4)n3)ncc2-c2ccn(C(F)(F)F)n2)CC1
Reply: 8.17

Task item: # get_value(readout= pIC50, system= EGFR L858R/C797S (Homo sapiens, UniProt P00533, C797S/L858R)) for Cc1nn(CC(F)(F)F)cc1-c1cc(Nc2ncc(-c3cc(C(F)(F)F)n(C)n3)c(N[C@H]3CC[C@@](C)(O)CC3)n2)ccn1
Reply: 8.00

Task item: # get_value(readout= pIC50, system= EGFR L858R/C797S (Homo sapiens, UniProt P00533, C797S/L858R)) for Cc1nn(CC(F)(F)F)cc1-c1nccc(Nc2cc(N[C@H]3CC[C@@](C)(O)CC3)c(-c3ccn(C(F)(F)F)n3)cn2)n1
Reply: 7.83

Task item: # get_value(readout= pIC50, system= EGFR L858R/C797S (Homo sapiens, UniProt P00533, C797S/L858R)) for C[C@]1(O)CC[C@@H](Nc2cc(Nc3nc(-c4cnn(S(=O)(=O)C5CC5)c4)ncc3F)ncc2-c2ccn(CC(F)F)n2)CC1
Reply: 9.52

Task item: # get_value(readout= pIC50, system= EGFR L858R/C797S (Homo sapiens, UniProt P00533, C797S/L858R)) for C[C@]1(O)CC[C@@H](Nc2cc(Nc3ccnc(-c4cnn(S(=O)(=O)C5CC5)c4)n3)ncc2-n2cccn2)CC1
Reply: 7.96

Task item: # get_value(readout= pIC50, system= EGFR L858R/C797S (Homo sapiens, UniProt P00533, C797S/L858R)) for CN1CCC(n2ccc(-c3cnc(Nc4ccnc(-c5cnn(CC(F)F)c5)n4)cc3N[C@H]3CC[C@@](C)(O)CC3)n2)CC1
Reply: 8.89
